Reference source: patent US20250101098A1

System Name: T1, human nectin-4 protein expressed on the surface of cells (human, UniProt Q96NY8 32-510)
T1 sequence: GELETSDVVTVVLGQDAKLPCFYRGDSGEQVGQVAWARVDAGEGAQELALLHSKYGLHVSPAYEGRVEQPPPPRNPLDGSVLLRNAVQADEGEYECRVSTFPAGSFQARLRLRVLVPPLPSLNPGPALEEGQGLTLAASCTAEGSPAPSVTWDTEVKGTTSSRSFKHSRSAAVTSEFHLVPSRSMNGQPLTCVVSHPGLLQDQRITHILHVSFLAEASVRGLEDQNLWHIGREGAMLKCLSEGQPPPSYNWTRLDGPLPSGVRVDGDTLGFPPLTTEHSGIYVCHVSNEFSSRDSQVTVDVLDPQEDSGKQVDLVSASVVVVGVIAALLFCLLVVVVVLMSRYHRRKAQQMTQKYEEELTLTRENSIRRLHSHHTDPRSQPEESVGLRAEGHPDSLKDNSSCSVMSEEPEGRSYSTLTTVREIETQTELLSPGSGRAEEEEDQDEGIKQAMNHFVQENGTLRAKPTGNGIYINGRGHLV
Assay Text: cell-based or functional assay
Measured Cell kill IC50, SKBR3 accompanies every entry in the list below.
# unit: nM | format: bare number

Request: Recorded Cell kill IC50, SKBR3 of Nectin-4 5D9 VH4/VL4 (antibody, V domains shown, Humanized; also called 5D9 VH variant 4 / 5D9 VL variant 4) VH: QVQLQQSGPGLVKPSETLSLTCTVSGFSLTNYGVHWVRQPPGKGLEWLGVIWSGGSTDYNPSLKSRLTISRDTSKNQVSFKMSSVTAADTAVYYCARSGKWYYFDYWGQGTLVTVSS VL: DIQMTQSPSSLSASVGDRVTITCRASENIYSNLAWYQQKPGKAPKLLVYAATNLADGVPSRFSGSGSGTDYTLTISSLQPEDFATYYCQHFWGTPTFGGGTKVEIK , please.
Result: 9.45

Request: // returns reported Cell kill IC50, SKBR3 for input Nectin-4 5D9 VH1/VL3 (antibody, V domains shown, Humanized; also called 5D9 VH variant 1 / 5D9 VL variant 3) VH: QVQLKESGPGLVQPSETLSLTCTVSGFSITNYGVHWIRQSPGKGLEWLGVIWSGGSTDYNAAFVSRVTISRDNSKSQVFFKLNSVQADDTAVYYCARSGKWYYFDYWGQGTTVTVSS VL: DIQMTQSPSSLSASVGDRVTITCRASQSIYSNLAWYQQKPGKAPKLLVYAATNLASGVPSRFSGSGSGTDFTLTISSLQPEDFATYYCQHFWGTPTFGGGTKVEIK
Result: 9.36

Request: # query: Cell kill IC50, SKBR3 of entry Nectin-4 5D9 VH1/VL5 (antibody, V domains shown, Humanized; also called 5D9 VH variant 1 / 5D9 VL variant 5) VH: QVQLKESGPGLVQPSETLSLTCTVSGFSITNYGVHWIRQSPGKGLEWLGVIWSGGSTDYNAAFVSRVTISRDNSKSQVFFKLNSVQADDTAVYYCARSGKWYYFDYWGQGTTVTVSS VL: DIQMTQSPSSLSASVGDRVTITCRASQSIYSNLAWYQQKPGKAPKLLVYAATNLQSGVPSRFSGSGSGTDFTLTISSLQPEDFATYYCQHFWGTPTFGGGTKVEIK
Result: 10.1

Request: Fill blank: measured Cell kill IC50, SKBR3 of the binder Nectin-4 5D9 VH2/VL4 (antibody, V domains shown, Humanized; also called 5D9 VH variant 2 / 5D9 VL variant 4) VH: QVQLQESGPGLVKPSETLSLTCTVSGFSITNYGVHWIRQPPGKGLEWLGVIWSGGSTDYNASLVSRVTISRDTSKSQFFLKLNSVQADDTAVYYCARSGKWYYFDYWGQGTTVTVSS VL: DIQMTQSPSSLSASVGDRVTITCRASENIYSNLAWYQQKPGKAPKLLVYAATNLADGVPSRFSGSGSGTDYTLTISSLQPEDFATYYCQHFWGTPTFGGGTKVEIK is ____.
Result: 18.5

Request: // returns reported Cell kill IC50, SKBR3 for input Nectin-4 5D9 VH3/VL2 (antibody, V domains shown, Humanized; also called 5D9 VH variant 3 / 5D9 VL variant 2) VH: QVQLQESGPGLVKPSETLSLTCTVSGGSITNYGVHWIRQPPGKGLEWLGVIWSGGSTDYNPSLKSRVTISVDTSKNQFSLKLSSVTAADTAVYYCARSGKWYYFDYWGQGTLVTVSS VL: DIQMTQSPSSLSASVGDTVTITCRASQNIYSNLAWYQQKQGKAPKLLVYAATNLADGVPSRFSGSGSGTDFTLKINSLQPEDFATYYCQHFWGTPTFGGGTKVEIK
Result: 15.3
